TARGET SYSTEM: TBPS binding
METHOD SUMMARY: Steroid inhibition of TBPS binding
CONDITION SET: Table II-2; read-out: TBPS IC50 (μm)
In this section we review reported IC50 values for a set of compounds.

# COMPOUND, IC50
data = [
    ("Cc1nnn(CC(=O)[C@H]2CC[C@H]3[C@@H]4CC=C5CC[C@](C)(O)CC[C@]5(C)[C@H]4CC[C@]23C)n1", "10 to 100 nM"),
    ("CC(=O)[C@H]1CC[C@H]2[C@@H]3CC=C4CC[C@@](C)(O)CC[C@]4(C)[C@H]3CC[C@]12C", "1000 to 10000 nM"),
    ("C[C@@]1(O)CCC[C@@]2(C)[C@@H](CC[C@@H]3[C@@H]2CC[C@]2(C)[C@@H](C(=O)Cn4cc(C#N)cn4)CC[C@@H]32)C1", "10 to 100 nM"),
    ("Cc1nnnn1CC(=O)[C@H]1CC[C@H]2[C@@H]3CC[C@@H]4CC[C@](C)(O)CC[C@@H]4[C@H]3CC[C@]12C", "1000 to 10000 nM"),
    ("CC(=O)[C@H]1CC[C@H]2[C@@H]3CC[C@@H]4[C@H](CC[C@@]4(C)O)[C@H]3CC[C@]12C", "1000 to 10000 nM"),
    ("CC(=O)[C@H]1CC[C@H]2[C@@H]3CC[C@H]4CC[C@](C)(O)CC[C@]4(C)[C@H]3CC[C@]12C", "10 to 100 nM"),
    ("Cc1nnnn1CC(=O)[C@H]1CC[C@H]2[C@@H]3CC=C4CC[C@](C)(O)CC[C@]4(C)[C@H]3CC[C@]12C", "10 to 100 nM"),
    ("CC(=O)[C@H]1CC[C@H]2[C@@H]3CC=C4C[C@](C)(O)CCC[C@]4(C)[C@H]3CC[C@]12C", "1000 to 10000 nM"),
    ("CC(=O)[C@H]1CC[C@H]2[C@@H]3CC[C@@H]4CCC(=O)CC[C@@H]4[C@H]3CC[C@]12C", "1000 to 10000 nM"),
    ("C[C@]1(O)CC[C@H]2CC[C@@H]3[C@H](CC[C@]4(C)[C@@H](C(=O)Cn5cc(C#N)cn5)CC[C@@H]34)[C@H]2CC1", "100 to 1000 nM"),
    ("C[C@]1(O)C[C@H]2CC[C@@H]3[C@H](CC[C@]4(C)[C@@H](C(=O)Cn5nccn5)CC[C@@H]34)[C@H]2C1", "100 to 1000 nM"),
    ("C[C@]12CC[C@@H]3[C@H]4CC[C@](C)(O)[C@@H]4CC[C@H]3[C@@H]1CC[C@@H]2C(=O)Cn1cc(C#N)cn1", "1000 to 10000 nM"),
    ("CC(=O)[C@H]1CC[C@H]2[C@@H]3CC[C@@H]4C[C@](C)(O)CCC[C@@H]4[C@H]3CC[C@]12C", "10 to 100 nM"),
    ("CC(=O)[C@H]1CC[C@H]2[C@@H]3CC[C@H]4C[C@H](O)CCC[C@]4(C)[C@H]3CC[C@]12C", "100 to 1000 nM"),
    ("Cc1nnnn1CC(=O)[C@H]1CC[C@H]2[C@@H]3CC[C@H]4CC[C@](C)(O)CC[C@]4(C)[C@H]3CC[C@]12C", "100 to 1000 nM"),
    ("CC(=O)[C@H]1CC[C@H]2[C@@H]3CC[C@@H]4CC[C@](C)(O)CC[C@@H]4[C@H]3CC[C@]12C", "100 to 1000 nM"),
    ("COC[C@]1(O)C[C@H]2CC[C@@H]3[C@H](CC[C@]4(C)[C@@H](C(C)=O)CC[C@@H]34)[C@H]2C1", "100 to 1000 nM"),
    ("C[C@]1(O)C[C@H]2CC[C@@H]3[C@H](CC[C@]4(C)[C@@H](C(=O)Cn5ccnn5)CC[C@@H]34)[C@H]2C1", "100 to 1000 nM"),
    ("C[C@@]1(O)CCC[C@H]2[C@H](CC[C@@H]3[C@@H]2CC[C@]2(C)[C@@H](C(=O)Cn4cc(C#N)cn4)CC[C@@H]32)C1 [II-E10a]", "10 to 100 nM"),
    ("CC(=O)[C@H]1CC[C@H]2[C@@H]3CC[C@@H]4C[C@](C)(O)C[C@@H]4[C@H]3CC[C@]12C", "100 to 1000 nM"),
    ("C[C@]1(O)CCC[C@H]2[C@H](CC[C@@H]3[C@@H]2CC[C@]2(C)[C@@H](C(=O)Cn4cc(C#N)cn4)CC[C@@H]32)C1", "100 to 1000 nM"),
    ("CC(=O)[C@H]1CC[C@H]2[C@@H]3CC[C@H]4C[C@](C)(O)CCC[C@]4(C)[C@H]3CC[C@]12C", "1000 to 10000 nM"),
]
